Data provenance: ChEMBL document CHEMBL1201862

Tested on: HOP-62
Experiment: NCI tumour cell line growth inhibition, 48 h
The source made the active and inactive calls. No stated cut-off is given here; in the data, active = GI50 up to about 1.1 µM and inactive = higher.
Metric: GI50

| Compound | GI50 |
| --- | --- |
| Cc1cc(NS(=O)(=O)c2ccc(Nc3c4ccccc4nc4c(C(=O)N5CCN(CCO)CC5)cccc34)cc2)no1 | > 100 µM (inactive) |
| O=C1OC(CC(=O)c2ccc(Cl)cc2Cl)C(Cl)=C1Cl (stereo not given) | > 59.2 µM (inactive) |
| Cc1n[n+](Cc2ccccc2)c2sc(N)nn12 | > 100 µM (inactive) |
| O=[N+]([O-])c1ccc(-c2cc(O)c3nc4ccccc4n3c2)cc1 | 28.6 µM (inactive) |

Sure, the documented GI50 for NC(=O)/N=C1\NC(Cc2ccccc2)C(=O)N1Cc1ccccc1 (stereo not given) is > 100 µM (inactive)

###

System: A498
Test: NCI tumour cell line growth inhibition, 48 h
Calls of active or inactive are those of the source. Cut-off read from the data, not from the text of the source: active = GI50 up to about 1.1 µM and inactive = higher.
A correct response names exactly one class from TRUE (active), FALSE (inactive)

Check out these entries, answers already filled in.
| Molecule | Target System | Category Label |
| --- | --- | --- |
| Cc1nn(C(=O)Cc2ccccc2)c2c1C(c1ccccc1)SC(=N)N2 (stereo not given) | A498 | FALSE |
| COc1ccc(/C=c2\s/c(=C3/SC(=S)N(c4ccccc4)C3=O)n(-c3ccccc3)c2=O)cc1 | A498 | FALSE |
| CN(C)c1ccc(C=C2N=C(c3ccccc3)N(c3cc(C(=O)c4ccccc4)ccc3N3C(=O)/C(=C/c4ccc(N(C)C)cc4)N=C3c3ccccc3)C2=O)cc1 | A498 | FALSE |
| Cn1c(=O)c2c(nc3sc4nc5ccccc5nc4n32)n(C)c1=O | A498 | FALSE |

Task item: Please indicate how the test categorized Nc1c(S(N)(=O)=O)cc(S(N)(=O)=O)cc1S(N)(=O)=O .
Reply: FALSE

Task item: How was COc1ccc2c(c1)C1Oc3ccccc3CC1CO2 (stereo not given) classified in this test?
Reply: FALSE

Task item: Short answer needed: outcome of this test for CS(=O)(=O)c1nc(N)nc2nc[nH]c12 ?
Reply: FALSE

Task item: Hi, do you know how CC(C)(C)[Si](C)(C)OC1/C(=C/C#N)C(n2ccc(=O)[nH]c2=O)OC1CO (stereo not given) came out in this test?
Reply: FALSE

Task item: Please state the recorded outcome for this molecule: CC(C)N1CN(c2ccccc2)C2(CCN(CCCC(=O)c3ccc(F)cc3)CC2)C1=O
Reply: FALSE

Task item: Could you check what this test reported for Cc1ccccc1/N=N/c1c(-c2ccccc2)nn(C(=O)CC(=O)Nc2cccc(Cl)c2)c1-c1ccccc1 ?
Reply: FALSE

###

Tested on: NCI/ADR-RES
Experiment: NCI tumour cell line growth inhibition, 48 h
The source made the active and inactive calls. No stated cut-off is given here; in the data, active = GI50 up to about 1.1 µM and inactive = higher.
Pick from 1 for active, -1 for inactive when you respond.

Task item: Any idea what this test logged for Cc1n[n+](Cc2ccccc2)c2sc(N)nn12 ?
Reply: -1

Task item: Per the records of this test, what outcome belongs to CCCCCCCCCCCCCCCCOP(=O)(O)OP(=O)(O)OCC1OC(n2cnc3c(N)ncnc32)C(O)C1O (stereo unspecified) ?
Reply: -1

Task item: Could you kindly confirm the outcome this assay logged for CCOC(=O)c1cc(Br)c(-c2cc(C)co2)[nH]1 ?
Reply: -1

Task item: What classification did N#CC(C#N)=Cc1c[nH]c(=O)[nH]c1=O end up with in this test?
Reply: -1

Task item: What classification did CO[C@]12C[C@@H](CNC(=O)c3cc(Br)c[nH]3)O[C@H]1NC(=O)N2 end up with in this test?
Reply: -1

Task item: Field: outcome | Entry: c1ccc(CSC(SCc2ccccc2)c2ccc3c(c2)OCO3)cc1
Reply: -1

Task item: How was O=C1N[C@@H]([C@H]2CC[C@H](Cl)CN2)C(=O)N[C@H]1[C@H]1CC[C@H](Cl)CN1 classified in this test?
Reply: 1

Task item: Give the logged outcome of this assay for the following compound: O=C1OI(C#Cc2ccccc2)c2ccccc21
Reply: -1

Task item: Kindly provide the recorded test outcome for the following compound: CC(=O)NC(Cc1ccsc1)C(=O)O (stereo unspecified)
Reply: -1

Task item: Which outcome was entered for the compound Cc1cn(C2CC(N=[N+]=[N-])C(CO[Si](C)(C)C(C)(C)C)O2)c(=O)[nH]c1=O (stereo unspecified) in this test?
Reply: -1

Task item: Could you please tell me the result logged for CN(C)CCCNC(=O)c1cc(NC(=O)CCCn2c3ccccc3c3ccccc32)cn1C in this assay?
Reply: -1

Task item: State the result this test recorded for CCCNC(=O)Cn1c2c(c3ccccc31)CCCC2 .
Reply: -1

Task item: In this assay, the call recorded for OC(c1ccccc1)(c1ccccc1)c1nccc2ccccc12 was what?
Reply: -1

Task item: Returns: the outcome recorded for COC(=O)/C=C\C(C#N)(C#N)/N=C/c1ccccc1 in this assay.
Reply: -1

Task item: Recorded call for N#CC1=C(N)C(C#N)(C#N)C(c2ccc(F)cc2)C=C1C1CC1 (stereo unspecified) ?
Reply: -1

Task item: Returns: the outcome recorded for CC(=O)NNc1nc(C)c(C(=O)NNC(=O)C(=O)Nc2nc3ccc([N+](=O)[O-])cc3s2)s1 in this assay.
Reply: -1
